Source listed as patent US8344181B2.

Task for the reader: assign each of the following compounds its reported IC50.
Target: 11β-HSD2 (Homo sapiens)
Construct: endogenous in cells
Assay: Cellular assay of 11β-HSD2 activity in HepG2 cells
Conditions: 4 hour pre-incubation, 10^-5M to 10^-10M, read-out: HSD2 cellular HepG2 Score
Protocol: The effects on 11β-HSD2 activity was studied in HepG2 and LCC-PK1-cells HepG2-cells (ATCC HB-8065) were seeded in 12 well plates at a density of 100,000 cells/ml and grown at 37° C. in a humidified 5% CO2 atmosphere in MEM-Rega-3 medium supplemented with 10% heat inactivated foetal calf serum, 2 mM L-glutamine and sodium bicarbonate). Medium was refreshed twice a week. Following a 4 hour pre-incubation with test compound, 0.5 μCi ^3H-cortisol or corticosterone, was added to the cultures. […]

IC50 in this record for COc1cccc(OC(C)(C)C(=O)N[C@H]2[C@@H]3CC4C[C@H]2C[C@](O)(C4)C3)c1 : < 1000 nM

The compound Cc1cc(Cl)ccc1OC(C)(C)C(=O)N[C@H]1[C@@H]2CC3C[C@H]1C[C@](NC(=O)CN(C)CCO)(C3)C2 showed IC50 equal to 1000 to 10000 nM

Entry CC(C)(Nc1cccc(C(F)(F)F)c1)C(=O)N[C@H]1[C@@H]2CC3C[C@H]1C[C@](NC(=O)CCl)(C3)C2 ; IC50 = 1000 to 10000 nM

Record O=C(N[C@H]1[C@@H]2CC3C[C@H]1C[C@](O)(C3)C2)[C@@H]1CCc2cc(F)ccc2O1 . Reported IC50: 1000 to 10000 nM

----------
Target: 11β-HSD2 (Homo sapiens, UniProt P80365)
Construct: endogenous in cells
Sequence (P80365 1-405): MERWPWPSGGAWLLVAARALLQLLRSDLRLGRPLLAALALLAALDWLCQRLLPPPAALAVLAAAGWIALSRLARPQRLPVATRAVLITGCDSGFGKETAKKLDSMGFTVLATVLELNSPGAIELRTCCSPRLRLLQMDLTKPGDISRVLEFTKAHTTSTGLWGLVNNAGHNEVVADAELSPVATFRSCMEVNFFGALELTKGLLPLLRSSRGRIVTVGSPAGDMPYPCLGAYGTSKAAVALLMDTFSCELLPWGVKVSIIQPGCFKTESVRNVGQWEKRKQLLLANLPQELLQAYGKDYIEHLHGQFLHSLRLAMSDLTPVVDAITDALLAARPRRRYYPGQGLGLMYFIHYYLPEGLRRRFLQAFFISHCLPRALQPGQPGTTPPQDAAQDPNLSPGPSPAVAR
Experiment: Cellular assay of 11β-HSD2 activity in HepG2 cells
Details: 4 hour pre-incubation, 10^-5M to 10^-10M, read-out: HSD2 cellular HepG2 Score
pIC50: −log10 of the molar value.
endpoint name: pIC50

Per the records, this molecule ( O=C(N[C@H]1[C@@H]2CC3C[C@H]1C[C@](O)(C3)C2)c1cc2ccccc2o1 ) has pIC50 equal to < 5.00

Entry CC(=O)N[C@@]12CC3C[C@H](C1)[C@H](NC(=O)C(C)(C)Nc1cccc(C)c1)[C@@H](C3)C2 — recorded pIC50 = 5.00 to 6.00

For record Cc1ccc(OC(C)(C)C(=O)N[C@H]2[C@@H]3CC4C[C@H]2C[C@](O)(C4)C3)cc1 the listed pIC50 is > 6.00

Lab note: CC(C)(C(=O)N[C@H]1[C@@H]2CC3C[C@H]1C[C@](O)(C3)C2)S(=O)(=O)c1ccc(Cl)cc1 gave pIC50 of > 6.00

For this molecule ( CC(C)(Oc1ccc(Cl)cc1)C(=O)N[C@H]1[C@@H]2CC3C[C@H]1C[C@](N)(C3)C2 ), measured pIC50 is < 5.00

Just so you know, measured pIC50 for CC(C)(Oc1cccc(C(F)(F)F)c1)C(=O)N[C@H]1[C@@H]2CC3C[C@H]1C[C@](N)(C3)C2 came out at < 5.00

pIC50 measured on COc1cccc(NC(C)(C)C(=O)N[C@H]2[C@@H]3CC4C[C@H]2C[C@](F)(C4)C3)c1 = < 5.00

The recorded pIC50 for entry COc1cccc(NC(C)(C)C(=O)N[C@H]2[C@@H]3CC4C[C@H]2C[C@](NC(C)=O)(C4)C3)c1 equals 5.00 to 6.00

Reported pIC50 of Cc1cc(Cl)ccc1OC(C)(C)C(=O)N[C@H]1[C@@H]2CC3C[C@H]1C[C@](N1CCCC1=O)(C3)C2 : > 6.00

// pIC50 lookup, molecule = Cc1ccc(OC(C)(C)C(=O)N[C@H]2[C@@H]3CC4C[C@H]2C[C@](OC(=O)CN2CCOCC2)(C4)C3)cc1 , result: 5.00 to 6.00

Sample Cc1ccc(NC(C)(C)C(=O)N[C@H]2[C@@H]3CC4C[C@H]2C[C@](O)(C4)C3)cc1 ; pIC50 observed: < 5.00

----------
Biological target: 11β-HSD2 (Homo sapiens)
Construct: endogenous in cells
Sequence (P80365 1-405): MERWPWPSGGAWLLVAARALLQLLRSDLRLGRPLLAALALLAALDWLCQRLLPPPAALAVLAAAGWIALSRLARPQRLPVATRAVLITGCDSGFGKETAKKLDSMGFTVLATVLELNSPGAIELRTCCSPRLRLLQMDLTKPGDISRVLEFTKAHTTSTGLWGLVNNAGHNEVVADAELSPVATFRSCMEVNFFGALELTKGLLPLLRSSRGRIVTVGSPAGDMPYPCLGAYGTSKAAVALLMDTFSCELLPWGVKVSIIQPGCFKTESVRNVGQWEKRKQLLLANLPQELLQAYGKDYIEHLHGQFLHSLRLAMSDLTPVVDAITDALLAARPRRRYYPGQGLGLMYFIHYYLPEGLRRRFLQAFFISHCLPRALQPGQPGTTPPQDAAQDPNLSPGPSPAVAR
Test: Cellular assay of 11β-HSD2 activity in HepG2 cells
Settings: 4 hour pre-incubation, 10^-5M to 10^-10M, read-out: HSD2 cellular HepG2 Score
endpoint name: IC50

Looking up CC(C)(Oc1cccc(Cl)c1)C(=O)N[C@H]1[C@@H]2CC3C[C@H]1C[C@](O)(C3)C2 , I see its IC50 listed as < 1000 nM

Quick note, IC50 for CC(C)(Oc1cccc(C(F)(F)F)c1)C(=O)N[C@H]1[C@@H]2CC3C[C@H]1C[C@](NS(C)(=O)=O)(C3)C2 landed at 1000 to 10000 nM

// IC50 lookup, compound = Cc1ccc2c(c1)NCC(C(=O)N[C@H]1[C@@H]3CC4C[C@H]1C[C@](O)(C4)C3)O2 (stereo partly shown) , result: 1000 to 10000 nM

Item: Cc1cc(C)cc(OC(C)(C)C(=O)N[C@H]2[C@@H]3CC4C[C@H]2C[C@](O)(C4)C3)c1 | IC50: < 1000 nM

In plain terms, CC(C)(Oc1cccc(Br)c1)C(=O)N[C@H]1[C@@H]2CC3C[C@H]1C[C@](NC(=O)CCl)(C3)C2 has a documented IC50 of 1000 to 10000 nM

Lab note: Cc1c(C)c2c(c(C)c1O)CCC(C)(C(=O)N[C@H]1[C@@H]3CC4C[C@H]1C[C@](O)(C4)C3)O2 (stereo partly shown) gave IC50 of < 1000 nM

Reported IC50 ( Cc1c(C(=O)N[C@H]2[C@@H]3CC4C[C@H]2C[C@](O)(C4)C3)oc2ccccc12 ) = > 10000 nM

----------
Molecular target: 11β-HSD2 (Homo sapiens, UniProt P80365)
Construct: endogenous in cells
Sequence (P80365 1-405): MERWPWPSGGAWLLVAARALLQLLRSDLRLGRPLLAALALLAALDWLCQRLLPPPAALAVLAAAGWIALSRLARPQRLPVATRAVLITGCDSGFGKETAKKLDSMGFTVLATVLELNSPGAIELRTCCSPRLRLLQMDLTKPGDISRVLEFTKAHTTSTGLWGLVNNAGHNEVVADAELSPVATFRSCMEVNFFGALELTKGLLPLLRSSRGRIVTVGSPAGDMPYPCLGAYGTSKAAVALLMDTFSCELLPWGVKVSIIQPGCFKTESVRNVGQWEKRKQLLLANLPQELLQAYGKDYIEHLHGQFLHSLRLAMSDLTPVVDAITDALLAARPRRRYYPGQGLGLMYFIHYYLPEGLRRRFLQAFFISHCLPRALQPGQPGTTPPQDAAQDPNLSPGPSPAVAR
Assay: Cellular assay of 11β-HSD2 activity in HepG2 cells
Details: 4 hour pre-incubation, 10^-5M to 10^-10M, read-out: HSD2 cellular HepG2 Score
I'd be grateful if you could share measured IC50 for these entries.

Query CC(=O)N[C@@]12CC3C[C@H](C1)[C@H](NC(=O)C(C)(C)Nc1ccc(C)cc1)[C@@H](C3)C2 yields IC50 of > 10 µM

Entry CCOC(=O)N[C@@]12CC3C[C@H](C1)[C@H](NC(=O)C(C)(C)Oc1ccc(Cl)cc1C)[C@@H](C3)C2 ; IC50 = 1 to 10 µM

Entry under test: O=C(N[C@H]1[C@@H]2CC3C[C@H]1C[C@](O)(C3)C2)[C@H]1CCc2cc(F)ccc2O1 . Its IC50 was < 1 µM

IC50 for Cc1cc(Cl)ccc1OC(C)(C)C(=O)N[C@H]1[C@@H]2CC3C[C@H]1C[C@](N(C)C)(C3)C2 is > 10 µM

Lab note: measured IC50 of Cc1cccc(NC(C)(C)C(=O)N[C@H]2[C@@H]3CC4C[C@H]2C[C@](O)(C4)C3)c1 was > 10 µM

Reported IC50 of CC(=O)N[C@@]12CC3C[C@H](C1)[C@H](NC(=O)C(C)(C)Nc1ccc(Br)cc1C)[C@@H](C3)C2 : 1 to 10 µM

// recorded IC50 for Cc1cc(C)cc(OC(C)(C)C(=O)NC2C3CC4CC(C3)CC2C4)c1 (stereo not drawn) : > 10 µM

The value of IC50 measured for the molecule COc1cc(OC)cc(OC(C)(C)C(=O)N[C@H]2[C@@H]3CC4C[C@H]2C[C@](O)(C4)C3)c1 turned out to be 1 to 10 µM

// IC50 lookup, molecule = COC(=O)c1cccc(NC(C)(C)C(=O)N[C@H]2[C@@H]3CC4C[C@H]2C[C@](O)(C4)C3)c1 , result: > 10 µM

Recorded result, CC(C)(Oc1ccc(Cl)cc1)C(=O)N[C@H]1[C@@H]2CC3C[C@H]1C[C@](O)(C3)C2 , IC50: 1 to 10 µM

The molecule identified as CC(C)(Oc1cccc(Br)c1)C(=O)N[C@H]1[C@@H]2CC3C[C@H]1C[C@](N)(C3)C2 registered its IC50 at > 10 µM

Entry under test: CC(C)(Nc1ccccc1)C(=O)N[C@H]1[C@@H]2CC3C[C@H]1C[C@](F)(C3)C2 . Its IC50 was > 10 µM

The recorded IC50 for Cc1cc(Cl)ccc1OC(C)(C)C(=O)N[C@H]1[C@@H]2CC3C[C@H]1C[C@](NC(=O)CN1CCOCC1)(C3)C2 is 1 to 10 µM

Recorded IC50 (molecule Cc1ccc(NC(C)(C)C(=O)N[C@H]2[C@@H]3CC4C[C@H]2C[C@](F)(C4)C3)cc1 ): > 10 µM

COc1ccc(NC(C)(C)C(=O)N[C@H]2[C@@H]3CC4C[C@H]2C[C@](NC(C)=O)(C4)C3)cc1 yielded IC50 of > 10 µM
